Assay: NADPH-dependent phase I metabolic stability in mouse liver microsomes
Assay type: in vitro ADME
Conditions: pH 7.4, mouse liver microsomes
Recorded metric: half-life at 100 µM (min)
Answers are plain numbers, in min.

# input What value of half-life at 100 µM has been reported for the following compound? COc1cc(O)c2c(c1)OC(c1ccc(O)cc1)CC2=O (racemic) [SKN, (+/−) 7-O-methylnaringenin]
# output 5.4

----------
Experiment: NADPH-dependent phase I metabolic stability in human liver microsomes
Type: in vitro ADME
Settings: pH 7.4, human liver microsomes, read-out: CLint, hepatic
Recorded metric: CLint scaled at 100 µM

# input What value of CLint scaled at 100 µM has been reported for the following compound? COc1cc(O)c2c(c1)OC(c1ccc(O)cc1)CC2=O (racemic) [SKN, (+/−) 7-O-methylnaringenin]
# output < 20.8 mL/min/kg

----------
Exercise: state measured inhibition at 10 μM for each of the compounds provided.
Target: UGT1A9 (Homo sapiens)
Construct: The typical incubation mixture contained human liver microsomes (0.5 mg/mL) along with SKN (10 μM); tissue BD Gentest; host or cells: human liver microsomes
Sequence (O60656 26-530): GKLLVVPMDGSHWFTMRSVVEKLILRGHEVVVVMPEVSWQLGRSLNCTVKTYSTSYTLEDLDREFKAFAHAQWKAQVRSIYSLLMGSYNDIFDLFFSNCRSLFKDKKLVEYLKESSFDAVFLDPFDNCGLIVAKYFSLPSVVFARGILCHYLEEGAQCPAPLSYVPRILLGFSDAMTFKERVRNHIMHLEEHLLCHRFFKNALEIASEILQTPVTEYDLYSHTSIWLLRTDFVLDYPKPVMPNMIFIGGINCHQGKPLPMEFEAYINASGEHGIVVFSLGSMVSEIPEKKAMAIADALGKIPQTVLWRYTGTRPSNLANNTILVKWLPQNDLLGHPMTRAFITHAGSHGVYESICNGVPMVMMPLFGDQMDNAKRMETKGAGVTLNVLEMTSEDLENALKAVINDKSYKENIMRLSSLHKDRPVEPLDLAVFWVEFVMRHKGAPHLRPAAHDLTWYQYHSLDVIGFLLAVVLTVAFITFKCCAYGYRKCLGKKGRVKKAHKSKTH
Assay: UGT inhibition in human liver microsomes, mycophenolic acid O-glucuronidation (MPAG)
Format: in vitro ADME
Conditions: human, human liver microsomes, pH 7.4, probe mycophenolic acid (200 μM), O-glucuronidation (MPAG), UGT1A9, MPAG, inhibitor 10 µM, human liver microsomes 0.5 mg/mL; read-out: Inhibition (%)
One number for each entry, in %.

{"Compound": "O=C1C[C@@H](c2ccc(O)cc2)Oc2cc(O)cc(O)c21 [Naringenin]", "inhibition at 10 μM [%]": 2}

Note: attention shifts to another entry.
# input Item: O=C1C[C@@H](c2ccc(O)c(O)c2)Oc2cc(O)cc(O)c21 [Eriodictyol, 3′-hydroxynaringenin] Test system: UGT1A9 (Homo sapiens) Read-out: inhibition at 10 μM Value: ?
# output 2.9

----------
Target: UGT1A3 (Homo sapiens, UniProt P35503)
Construct: The typical incubation mixture contained human liver microsomes (0.5 mg/mL) along with SKN (10 μM); tissue BD Gentest; host or cells: human liver microsomes
Sequence (P35503 29-534): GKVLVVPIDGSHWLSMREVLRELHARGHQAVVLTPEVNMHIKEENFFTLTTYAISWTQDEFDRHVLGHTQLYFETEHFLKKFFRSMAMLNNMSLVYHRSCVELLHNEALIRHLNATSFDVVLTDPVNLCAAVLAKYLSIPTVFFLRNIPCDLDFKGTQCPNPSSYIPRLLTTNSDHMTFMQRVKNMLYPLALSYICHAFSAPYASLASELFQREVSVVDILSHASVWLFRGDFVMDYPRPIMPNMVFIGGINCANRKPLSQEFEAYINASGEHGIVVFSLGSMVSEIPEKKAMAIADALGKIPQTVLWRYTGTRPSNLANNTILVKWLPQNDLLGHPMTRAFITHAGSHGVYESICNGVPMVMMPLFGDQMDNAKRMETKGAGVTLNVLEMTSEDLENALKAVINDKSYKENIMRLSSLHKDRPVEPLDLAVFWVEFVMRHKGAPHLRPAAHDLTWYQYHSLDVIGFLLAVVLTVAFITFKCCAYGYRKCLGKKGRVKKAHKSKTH
Experiment: UGT inhibition in human liver microsomes, chenodeoxycholic acid 24-glucuronidation (CDCAG)
Format: in vitro ADME
Settings: pH 7.4, probe chenodeoxycholic acid (200 μM), SKN 10 μM, 15 min pre-incubation, read-out: % Inhibition in Pre-Incubation
Recorded metric: inhibition at 10 μM (%)
Give bare numbers, in %.

# input What value of inhibition at 10 μM has been reported for the following compound? COc1cc(O)c2c(c1)OC(c1ccc(O)cc1)CC2=O (racemic) [SKN, (+/−) 7-O-methylnaringenin]
# output 0.8

----------
Target: UniProtKB P05177
Sequence (P05177 1-516): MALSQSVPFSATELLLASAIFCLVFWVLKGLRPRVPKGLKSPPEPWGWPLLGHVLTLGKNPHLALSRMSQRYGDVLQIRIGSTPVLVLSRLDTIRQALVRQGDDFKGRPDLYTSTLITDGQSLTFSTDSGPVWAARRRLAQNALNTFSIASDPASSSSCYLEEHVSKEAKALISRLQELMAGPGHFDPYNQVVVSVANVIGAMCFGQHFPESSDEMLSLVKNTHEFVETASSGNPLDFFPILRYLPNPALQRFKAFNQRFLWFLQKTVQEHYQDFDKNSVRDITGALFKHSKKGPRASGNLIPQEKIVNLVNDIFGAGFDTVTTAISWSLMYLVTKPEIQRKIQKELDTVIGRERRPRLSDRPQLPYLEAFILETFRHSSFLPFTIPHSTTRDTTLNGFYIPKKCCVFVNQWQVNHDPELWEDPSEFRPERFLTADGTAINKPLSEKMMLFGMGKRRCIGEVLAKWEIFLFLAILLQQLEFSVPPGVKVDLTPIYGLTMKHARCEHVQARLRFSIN
Assay: CYP inhibition in human liver microsomes, phenacetin O-deethylation (PCOD)
Assay type: in vitro ADME
Settings: liver microsomes, pH 7.4, probe phenacetin (O-deethylation, PCOD), 200 μM, SKN 10 μM, human liver microsomes, read-out: % Inhibition in Co-Incubation
Recorded metric: inhibition at 60 min, 10 µM

# input Item: COc1cc(O)c2c(c1)OC(c1ccc(O)cc1)CC2=O (racemic) [SKN, (+/−) 7-O-methylnaringenin] Test system: UniProtKB P05177 Read-out: inhibition at 60 min, 10 µM Value: ?
# output 0.4%

----------
Test: NADPH-dependent phase I metabolic stability in dog liver microsomes
Assay type: in vitro ADME
Details: pH 7.4, dog liver microsomes, read-out: CLint, hepatic
Recorded metric: CLint scaled at 100 µM (mL/min/kg)
Answers are plain numbers, in mL/min/kg.

# input What value of CLint scaled at 100 µM has been reported for the following compound? COc1cc(O)c2c(c1)OC(c1ccc(O)cc1)CC2=O (racemic) [SKN, (+/−) 7-O-methylnaringenin]
# output 641

----------
Test: UDPGA-dependent metabolic stability in mouse liver microsomes
Assay type: in vitro ADME
Conditions: mouse, pH 7.4, mouse liver microsomes, NADPH −
Recorded metric: half-life at 100 µM (min)
Give bare numbers, in min.

# input What value of half-life at 100 µM has been reported for the following compound? COc1cc(O)c2c(c1)OC(c1ccc(O)cc1)CC2=O (racemic) [SKN, (+/−) 7-O-methylnaringenin]
# output 3.8

----------
Assay: NADPH-dependent phase I metabolic stability in dog liver microsomes
Type: in vitro ADME
Conditions: pH 7.4, dog liver microsomes
Recorded metric: half-life at 100 µM (min)
Answers are plain numbers, in min.

# input What value of half-life at 100 µM has been reported for the following molecule? COc1cc(O)c2c(c1)OC(c1ccc(O)cc1)CC2=O (racemic) [SKN, (+/−) 7-O-methylnaringenin]
# output 2.7

----------
Experiment: UDPGA-dependent metabolic stability in human liver microsomes
Type: in vitro ADME
Conditions: human, pH 7.4, human liver microsomes, NADPH −
Recorded metric: half-life at 100 µM

# input What value of half-life at 100 µM has been reported for the following compound? COc1cc(O)c2c(c1)OC(c1ccc(O)cc1)CC2=O (racemic) [SKN, (+/−) 7-O-methylnaringenin]
# output > 30 min

----------
Exercise: state measured inhibition at 60 min, 10 µM for each of the compounds provided.
Biological target: CYP3A4 (Homo sapiens)
Sequence (P08684 whole entry): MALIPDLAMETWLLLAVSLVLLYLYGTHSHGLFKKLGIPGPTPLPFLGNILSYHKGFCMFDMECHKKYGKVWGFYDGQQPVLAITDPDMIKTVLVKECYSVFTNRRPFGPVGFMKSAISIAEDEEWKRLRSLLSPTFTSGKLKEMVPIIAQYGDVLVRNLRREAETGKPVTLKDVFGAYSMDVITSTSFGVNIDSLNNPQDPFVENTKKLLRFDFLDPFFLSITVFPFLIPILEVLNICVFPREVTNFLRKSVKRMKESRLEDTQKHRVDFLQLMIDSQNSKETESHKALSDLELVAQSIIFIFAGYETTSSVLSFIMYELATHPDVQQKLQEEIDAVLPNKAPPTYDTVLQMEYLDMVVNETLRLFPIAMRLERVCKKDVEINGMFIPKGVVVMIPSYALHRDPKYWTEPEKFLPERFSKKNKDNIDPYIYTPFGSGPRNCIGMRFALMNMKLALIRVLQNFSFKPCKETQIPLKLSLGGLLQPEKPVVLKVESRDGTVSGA
Assay: CYP inhibition in human liver microsomes, testosterone 6β-hydroxylation (TSTHY)
Assay type: in vitro ADME
Conditions: human liver microsomes, pH 7.4, probe testosterone (6β-hydroxylation, TSTHY), 200 µM, inhibitor 10 M [sic], human liver microsomes 0.5 mg/mL, read-out: Inhibition (%)
Give bare numbers, in %.

{"Compound": "O=C1C[C@@H](c2ccc(O)cc2)Oc2cc(O)cc(O)c21", "inhibition at 60 min, 10 µM, %": 39.6}

Note: attention shifts to another entry.
# input What value of inhibition at 60 min, 10 µM has been reported for the following compound? O=C1C[C@@H](c2ccc(O)c(O)c2)Oc2cc(O)cc(O)c21 [Eriodictyol, 3′-hydroxynaringenin]
# output 3.2

----------
Experiment: UDPGA-dependent metabolic stability in human liver microsomes
Assay type: in vitro ADME
Settings: human, pH 7.4, human liver microsomes, NADPH −, read-out: CLint, hepatic
Recorded metric: CLint scaled at 100 µM

# input What value of CLint scaled at 100 µM has been reported for the following molecule? COc1cc(O)c2c(c1)OC(c1ccc(O)cc1)CC2=O (racemic) [SKN, (+/−) 7-O-methylnaringenin]
# output < 41.6 mL/min/kg

----------
Target: UGT1A3 (Homo sapiens, UniProt P35503)
Construct: The typical incubation mixture contained human liver microsomes (0.5 mg/mL) along with SKN (10 μM); tissue BD Gentest; host or cells: human liver microsomes
Sequence (P35503 29-534): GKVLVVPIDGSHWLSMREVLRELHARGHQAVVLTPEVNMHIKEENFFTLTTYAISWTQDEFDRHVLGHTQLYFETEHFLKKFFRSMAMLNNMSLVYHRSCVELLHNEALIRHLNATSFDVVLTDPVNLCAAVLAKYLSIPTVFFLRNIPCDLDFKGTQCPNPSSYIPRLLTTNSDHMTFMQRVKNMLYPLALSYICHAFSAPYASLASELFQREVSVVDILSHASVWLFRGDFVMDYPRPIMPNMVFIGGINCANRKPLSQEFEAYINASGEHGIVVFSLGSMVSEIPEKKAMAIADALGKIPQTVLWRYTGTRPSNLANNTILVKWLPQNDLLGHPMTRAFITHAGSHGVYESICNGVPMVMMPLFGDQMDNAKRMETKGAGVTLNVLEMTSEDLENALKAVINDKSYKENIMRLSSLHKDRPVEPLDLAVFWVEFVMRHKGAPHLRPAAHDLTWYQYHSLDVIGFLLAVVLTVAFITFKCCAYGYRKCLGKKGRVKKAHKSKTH
Test: UGT inhibition in human liver microsomes, chenodeoxycholic acid 24-glucuronidation (CDCAG)
Format: in vitro ADME
Conditions: pH 7.4, probe chenodeoxycholic acid (200 μM), SKN 10 μM, read-out: % Inhibition in Co-Incubation
Recorded metric: inhibition at 10 μM (%)
One number for each entry, in %.

# input What value of inhibition at 10 μM has been reported for the following compound? COc1cc(O)c2c(c1)OC(c1ccc(O)cc1)CC2=O (racemic) [SKN, (+/−) 7-O-methylnaringenin]
# output -0.6
